Overview of recorded protein stability index for various variants
B1: RSAD1 (parent)
chain: YCNFNKYIPRRLEEAAMQKCLVTE

# Variants of: B1
# TEST SUMMARY: protein stability index of a GFP-peptide fusion (GPS, HEK-293T) (PSI 1-6); higher = more stable;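 also: lentivirally expressed fusions sorted by FACS into six bins by GFP to DsRed ratio, PSI derived from sequencing read proportions per bin multiplied by bin number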
# CONDITION PARAMETERS: c terminus: a fixed tail appended
Answer as a number with no unit attached.

QUERY SEQUENCE: YCNFNKYIPRRLEEAAMQKCLVYE [T23Y]
QUANTITATIVE RESULT: 2.61
--
QUERY SEQUENCE: YCNFNKYYPRRLEEAAMQKCLVTE [I8Y]
QUANTITATIVE RESULT: 1.5

Let us examine a further case.
Query YCNFNKYIPRRLEEALMQKCLVTE [A16L] yields protein stability index of 1.41
